# System: S. aureus GC2216
# measurement_description: Antimicrobial susceptibility testing, microbroth dilution MIC of piperacillin + inhibitor
# Type: cell-based
# test_context: piperacillin combined with constant 4 μg/ml inhibitor; Inc: 35° C. for 18 hours
Listed here: items and their measured Minimal Inhibitory Concentration S. aureus GC2216.
measured_endpoint: Minimal Inhibitory Concentration S. aureus GC2216

compound: Cc1ccc2c(c1)sc1nc(/C=C3/C(=O)N4C(C(=O)O)=CS[C@H]34)cn12 [Example 7]
recorded_measurement: <0.06 µg/mL
//
compound: O=C(O)C1=CS[C@@H]2/C(=C\c3ccc4c(c3)sc3nccn34)C(=O)N12 [Example 16]
recorded_measurement: 0.05 µg/mL
//
compound: O=C(O)C1=CS[C@@H]2/C(=C\c3cn4c(n3)sc3cc(Cl)ccc34)C(=O)N12 [Example 3]
recorded_measurement: <0.06 µg/mL
//
compound: O=C(O)C1=CS[C@@H]2/C(=C\c3cn4c5c(sc4n3)CCCC5)C(=O)N12 [Example 19]
recorded_measurement: .06 µg/mL

###

The following compounds are shown together with reported IC50 values.
# test_target: class B enzyme CcrA (Bacteroides fragilis)
# Sequence (P25910 19-249): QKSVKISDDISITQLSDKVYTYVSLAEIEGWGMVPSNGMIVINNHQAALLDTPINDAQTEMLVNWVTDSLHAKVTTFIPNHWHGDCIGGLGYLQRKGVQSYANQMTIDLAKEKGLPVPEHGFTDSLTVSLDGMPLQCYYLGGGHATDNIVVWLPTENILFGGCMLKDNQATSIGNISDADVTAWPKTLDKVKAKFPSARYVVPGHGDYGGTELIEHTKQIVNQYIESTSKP
# measurement_description: β-Lactamase inhibition, IC50 determination (nitrocefin, spectrophotometric)
# Format: biochemical
# test_context: enzyme 1.2 nM; 10 min preincubation at 25° C.; nitrocefin 50 μg/ml; 50 mM PO4, pH 7.0; read-out: IC50 (nM) Class B Ccr
Where a name gives a salt, the structure may show the parent alone.

compound: CCOC(=O)N1CCc2c(oc3cc(/C=C4/C(=O)N5C(C(=O)[O-])=CS[C@H]45)nn23)C1.[Na+] [Example 33, sodium salt]
IC50 / nM: 160
//
compound: COc1nc2nc(/C=C3/C(=O)N4C(C(=O)O)=CS[C@H]34)cn2c2c1CCC2 [Example 26, sodium salt]
IC50 / nM: 420
//
compound: O=C([O-])C1=CS[C@@H]2/C(=C\c3ccc4nc5n(c4c3)CCCS5)C(=O)N12.[Na+] [Example 29, sodium salt]
IC50 / nM: 240
//
compound: O=C(O)C1=CS[C@@H]2/C(=C\c3cn4c(n3)sc3ccccc34)C(=O)N12
IC50 / nM: 350
//
compound: O=C(O)C1=CS[C@@H]2/C(=C\c3cn4c5c(sc4n3)CCCC5)C(=O)N12
IC50 / nM: 215
//
compound: O=C(O)C1=CS[C@@H]2/C(=C\c3cc4oc5c(n4n3)CCOC5)C(=O)N12 [Example 31, sodium salt]
IC50 / nM: 130
//
compound: O=C([O-])C1=CS[C@@H]2/C(=C\c3cn4c5c(c(OCCOCc6ccccc6)nc4n3)CCC5)C(=O)N12.[Na+] [Example 27, sodium salt]
IC50 / nM: 180
//
compound: O=C(O)C1=CS[C@@H]2/C(=C\c3cn4c(n3)sc3cc(Cl)ccc34)C(=O)N12
IC50 / nM: 74
//
compound: O=C([O-])C1=CS[C@@H]2C(=Cc3cc4n(n3)Cc3ccccc3OC4)C(=O)N12.[Na+] [Example 11, sodium salt]
IC50 / nM: 62
//
compound: Cc1ccc2c(c1)sc1nc(/C=C3/C(=O)N4C(C(=O)O)=CS[C@H]34)cn12
IC50 / nM: 103
//
compound: O=C(O)C1=CS[C@@H]2/C(=C\c3cn4c(ccc5ccccc54)n3)C(=O)N12
IC50 / nM: 900
//
compound: O=C([O-])C1=CS[C@@H]2/C(=C\c3cc4c(s3)-c3cccnc3SC4)C(=O)N12.[Na+] [Example 21, (Sodium salt)]
IC50 / nM: 210
//
compound: O=C([O-])C1=CS[C@@H]2/C(=C\c3cc4oc5c(n4n3)CCCC5)C(=O)N12.[Na+] [Example 32, sodium salt]
IC50 / nM: 180
